I'd be grateful if you could share measured inhibition for these entries.
# Subject of test: Voltage-dependent L-type calcium channel subunit alpha-1D (Homo sapiens, UniProt Q01668)
# Sequence (Q01668 whole entry): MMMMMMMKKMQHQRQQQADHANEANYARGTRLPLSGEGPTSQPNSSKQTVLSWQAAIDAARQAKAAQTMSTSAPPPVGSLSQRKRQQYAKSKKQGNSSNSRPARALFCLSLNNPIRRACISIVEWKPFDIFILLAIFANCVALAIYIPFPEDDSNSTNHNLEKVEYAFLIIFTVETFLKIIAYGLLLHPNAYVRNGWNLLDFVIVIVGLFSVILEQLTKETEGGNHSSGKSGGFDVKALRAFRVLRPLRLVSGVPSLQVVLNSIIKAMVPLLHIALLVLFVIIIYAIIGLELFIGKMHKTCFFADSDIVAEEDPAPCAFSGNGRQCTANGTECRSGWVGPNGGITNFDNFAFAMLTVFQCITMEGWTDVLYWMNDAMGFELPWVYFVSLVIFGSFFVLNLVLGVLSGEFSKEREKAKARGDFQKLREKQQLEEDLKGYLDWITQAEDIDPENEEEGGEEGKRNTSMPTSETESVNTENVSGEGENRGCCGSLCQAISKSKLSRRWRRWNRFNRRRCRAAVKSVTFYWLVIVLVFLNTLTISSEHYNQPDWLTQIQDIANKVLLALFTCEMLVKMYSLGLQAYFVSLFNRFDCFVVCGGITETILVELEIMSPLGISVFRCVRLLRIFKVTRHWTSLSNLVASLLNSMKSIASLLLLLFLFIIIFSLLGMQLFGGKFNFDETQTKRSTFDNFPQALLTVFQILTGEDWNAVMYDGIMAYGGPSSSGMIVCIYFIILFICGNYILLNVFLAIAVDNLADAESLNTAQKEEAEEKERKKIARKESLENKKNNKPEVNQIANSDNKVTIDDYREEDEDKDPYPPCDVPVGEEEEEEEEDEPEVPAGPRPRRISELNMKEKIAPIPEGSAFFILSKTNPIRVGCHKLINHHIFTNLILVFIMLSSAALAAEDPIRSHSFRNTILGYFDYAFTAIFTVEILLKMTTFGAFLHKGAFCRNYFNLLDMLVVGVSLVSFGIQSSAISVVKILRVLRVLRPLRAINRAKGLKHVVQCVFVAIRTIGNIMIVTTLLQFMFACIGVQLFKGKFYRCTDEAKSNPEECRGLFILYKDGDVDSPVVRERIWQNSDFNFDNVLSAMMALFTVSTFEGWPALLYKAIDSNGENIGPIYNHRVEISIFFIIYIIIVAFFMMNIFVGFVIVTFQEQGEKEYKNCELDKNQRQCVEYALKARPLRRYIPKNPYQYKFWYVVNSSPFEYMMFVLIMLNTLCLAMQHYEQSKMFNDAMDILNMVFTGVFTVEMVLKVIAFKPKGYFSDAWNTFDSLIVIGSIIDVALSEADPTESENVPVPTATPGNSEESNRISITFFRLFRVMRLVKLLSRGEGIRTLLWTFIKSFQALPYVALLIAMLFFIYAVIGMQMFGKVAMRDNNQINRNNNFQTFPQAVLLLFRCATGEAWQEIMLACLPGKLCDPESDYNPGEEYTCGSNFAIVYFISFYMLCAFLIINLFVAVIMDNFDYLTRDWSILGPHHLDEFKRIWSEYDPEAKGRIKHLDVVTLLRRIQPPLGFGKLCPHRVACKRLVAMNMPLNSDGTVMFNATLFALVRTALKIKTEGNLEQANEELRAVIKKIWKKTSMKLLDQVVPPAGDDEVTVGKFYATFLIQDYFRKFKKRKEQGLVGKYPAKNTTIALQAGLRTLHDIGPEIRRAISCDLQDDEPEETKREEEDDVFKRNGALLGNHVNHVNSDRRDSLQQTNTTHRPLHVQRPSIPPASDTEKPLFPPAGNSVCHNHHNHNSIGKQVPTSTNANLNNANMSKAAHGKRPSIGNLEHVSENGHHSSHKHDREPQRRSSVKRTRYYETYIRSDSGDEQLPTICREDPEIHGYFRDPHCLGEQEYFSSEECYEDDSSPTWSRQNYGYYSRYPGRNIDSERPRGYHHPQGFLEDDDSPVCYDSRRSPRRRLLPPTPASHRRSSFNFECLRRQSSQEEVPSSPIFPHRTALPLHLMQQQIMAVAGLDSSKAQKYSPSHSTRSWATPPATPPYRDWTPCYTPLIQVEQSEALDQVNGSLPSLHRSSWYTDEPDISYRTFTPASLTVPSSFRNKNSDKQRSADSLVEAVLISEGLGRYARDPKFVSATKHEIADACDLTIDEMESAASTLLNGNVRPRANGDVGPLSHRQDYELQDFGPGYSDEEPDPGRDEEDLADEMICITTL
# Protocol text: Inhibition of human Cav1.3 channel in human SH-SY5Y cells assessed as 70 mM K+ induced calcium elevation compound treated 15 mins before stimulus by Fluo-4/AM assay
# Format: cell-based
# number only, unit % dropped from output

Item: CCOC(=O)C1=C(C)NC(c2ccc(Cl)cc2)=CC1c1cccc(OC)c1 (centres undefined) | inhibition: 48

Sure, the documented inhibition for CCOC(=O)C1=C(C)NC(c2ccc(C)cc2)=CC1c1cccs1 (centres undefined) is 36

So, CCOC(=O)C1=C(C)NC(c2ccccc2)=CC1c1ccc(C)cc1 (centres undefined) ? Its inhibition was 43

Item: CC1(C)CC(=O)C2=C(C1)NC(c1ccccc1)=CC2c1ccccc1 (centres undefined) | inhibition: 79

###

Exercise: for every item that follows, state its recorded viability at 5 µM.
# Test system: SH-SY5Y
# Protocol text: Neuroprotective activity against rotenone-oligomycin A-induced oxidative stress in human SH-SY5Y cells assessed as survival incubated with rot/oligo for 8 hrs followed by treated with compound at 5 uM for 16 hrs by MTT assay (Rvb =70.6 +/- 1.8%)
# Assay type: functional
# Measurement context: read-out: Survival
Numeric only. Scale: %

Note to self: viability at 5 µM recorded for CC1=C(C(=O)SC(C)(C)C)C(c2ccc(C)cc2)C=C(c2ccccc2)N1 (stereo not drawn) was 83.4

Measured viability at 5 µM, C=CCOC(=O)C1=C(C)NC(c2ccc(Cl)cc2)=CC1c1ccccc1 (stereo not drawn) : 84.3

The recorded viability at 5 µM for entry CCOC(=O)C1=C(C)NC(c2ccccc2)=CC1c1ccc(C)cc1 (stereo not drawn) equals 88

Given item `COC(=O)C1=C(C)NC(C)=C(C(=O)OC)C1c1ccccc1[N+](=O)[O-]` , the value recorded as its viability at 5 µM is 73.8

The compound listed as CCCC1=C(C(=O)OCC)C(c2ccccc2)C=C(c2ccccc2)N1 (stereo not drawn) has a reported viability at 5 µM of 80.6

The compound CC1=C(C(=O)SC(C)(C)C)C(c2ccc(Br)cc2)C=C(c2ccc(C)cc2)N1 (stereo not drawn) showed viability at 5 µM equal to 74.2

In plain terms, CCOC(=O)C1=C(C)NC(c2ccc(C)cc2)=CC1c1cccs1 (stereo not drawn) has a documented viability at 5 µM of 77.5

For reference, reported viability at 5 µM for CC1=C(C(=O)SC(C)(C)C)C(/C(C)=C/c2ccccc2)C=C(c2ccccc2)N1 (stereo not drawn) stands at 86.2

Recorded viability at 5 µM (compound CCOC(=O)C1=C(C)NC(c2ccccc2)=CC1c1ccc(OC)cc1 (stereo not drawn) ): 83.5

For record CC(=O)C1=C(C)NC(c2ccccc2)=CC1c1ccccc1 (stereo not drawn) the listed viability at 5 µM is 76.7

Documented viability at 5 µM of CCOC(=O)C1=C(C)NC(c2ccco2)=CC1c1ccc(C)cc1 (stereo not drawn) : 79.9

viability at 5 µM recorded for this compound, CCOC(=O)C1=C(C)NC(c2ccc(Cl)cc2)=CC1c1cccc(OC)c1 (stereo not drawn) , is 76.6

Quick note, viability at 5 µM for COc1ccc(C2C=C(c3ccccc3)NC(C)=C2C(=O)SC(C)(C)C)cc1 (stereo not drawn) landed at 81.8

###

# Tested on: SH-SY5Y
# Protocol text: Neuroprotective activity against K+ induced Ca2+ overload in human SH-SY5Y cells assessed as survival at 5 uM after 24 hrs by MTT assay (reference value: 52.1 +/- 3.5%)
# Format: functional
# Measurement context: read-out: Survival
Quantity kind: viability at 5 µM (%)
State the answer as a number, implicitly in %.

Sure, the documented viability at 5 µM for CCOC(=O)C1=C(C)NC(c2ccccc2)=CC1c1ccc(OC)cc1 (stereo not given) is 69.4

The compound listed as CC1=C(C(=O)SC(C)(C)C)C(c2ccccc2)C=C(c2ccccc2)N1 (stereo not given) shows viability at 5 µM equal to 68

Field viability at 5 µM (entry C=CCOC(=O)C1=C(C)NC(c2ccc(Cl)cc2)=CC1c1ccccc1 (stereo not given) ) reads 68.7

Lab note: measured viability at 5 µM of CCOC(=O)C1=C(C)NC(c2ccc(Cl)cc2)=CC1c1ccccc1[N+](=O)[O-] (stereo not given) was 59.3

The value of viability at 5 µM measured for the compound CC1=C(C(=O)SC(C)(C)C)C(c2ccc(C)cc2)C=C(c2ccccc2)N1 (stereo not given) turned out to be 67.4

// sample CCOC(=O)C1=C(C)NC(c2ccccc2)=CC1c1ccc(C)cc1 (stereo not given) , its viability at 5 µM was 72.3

Lookup result for CCOC(=O)C1=C(C)NC(c2ccc(Cl)cc2)=CC1c1cccc(OC)c1 (stereo not given) ; measured viability at 5 µM: 72.7

// sample COc1ccc(C2C=C(c3ccccc3)NC(C)=C2C(=O)SC(C)(C)C)cc1 (stereo not given) , its viability at 5 µM was 66.7

Documented viability at 5 µM of CC1(C)CC(=O)C2=C(C1)NC(c1ccccc1)=CC2c1ccccc1 (stereo not given) : 64

CCOC(=O)C1=C(C)NC(c2ccco2)=CC1c1ccc(C)cc1 (stereo not given) has a reported viability at 5 µM of 68.5

###

# Subject of test: Voltage-dependent L-type calcium channel subunit alpha-1C (Rattus norvegicus, UniProt P22002)
# Sequence (P22002 whole entry): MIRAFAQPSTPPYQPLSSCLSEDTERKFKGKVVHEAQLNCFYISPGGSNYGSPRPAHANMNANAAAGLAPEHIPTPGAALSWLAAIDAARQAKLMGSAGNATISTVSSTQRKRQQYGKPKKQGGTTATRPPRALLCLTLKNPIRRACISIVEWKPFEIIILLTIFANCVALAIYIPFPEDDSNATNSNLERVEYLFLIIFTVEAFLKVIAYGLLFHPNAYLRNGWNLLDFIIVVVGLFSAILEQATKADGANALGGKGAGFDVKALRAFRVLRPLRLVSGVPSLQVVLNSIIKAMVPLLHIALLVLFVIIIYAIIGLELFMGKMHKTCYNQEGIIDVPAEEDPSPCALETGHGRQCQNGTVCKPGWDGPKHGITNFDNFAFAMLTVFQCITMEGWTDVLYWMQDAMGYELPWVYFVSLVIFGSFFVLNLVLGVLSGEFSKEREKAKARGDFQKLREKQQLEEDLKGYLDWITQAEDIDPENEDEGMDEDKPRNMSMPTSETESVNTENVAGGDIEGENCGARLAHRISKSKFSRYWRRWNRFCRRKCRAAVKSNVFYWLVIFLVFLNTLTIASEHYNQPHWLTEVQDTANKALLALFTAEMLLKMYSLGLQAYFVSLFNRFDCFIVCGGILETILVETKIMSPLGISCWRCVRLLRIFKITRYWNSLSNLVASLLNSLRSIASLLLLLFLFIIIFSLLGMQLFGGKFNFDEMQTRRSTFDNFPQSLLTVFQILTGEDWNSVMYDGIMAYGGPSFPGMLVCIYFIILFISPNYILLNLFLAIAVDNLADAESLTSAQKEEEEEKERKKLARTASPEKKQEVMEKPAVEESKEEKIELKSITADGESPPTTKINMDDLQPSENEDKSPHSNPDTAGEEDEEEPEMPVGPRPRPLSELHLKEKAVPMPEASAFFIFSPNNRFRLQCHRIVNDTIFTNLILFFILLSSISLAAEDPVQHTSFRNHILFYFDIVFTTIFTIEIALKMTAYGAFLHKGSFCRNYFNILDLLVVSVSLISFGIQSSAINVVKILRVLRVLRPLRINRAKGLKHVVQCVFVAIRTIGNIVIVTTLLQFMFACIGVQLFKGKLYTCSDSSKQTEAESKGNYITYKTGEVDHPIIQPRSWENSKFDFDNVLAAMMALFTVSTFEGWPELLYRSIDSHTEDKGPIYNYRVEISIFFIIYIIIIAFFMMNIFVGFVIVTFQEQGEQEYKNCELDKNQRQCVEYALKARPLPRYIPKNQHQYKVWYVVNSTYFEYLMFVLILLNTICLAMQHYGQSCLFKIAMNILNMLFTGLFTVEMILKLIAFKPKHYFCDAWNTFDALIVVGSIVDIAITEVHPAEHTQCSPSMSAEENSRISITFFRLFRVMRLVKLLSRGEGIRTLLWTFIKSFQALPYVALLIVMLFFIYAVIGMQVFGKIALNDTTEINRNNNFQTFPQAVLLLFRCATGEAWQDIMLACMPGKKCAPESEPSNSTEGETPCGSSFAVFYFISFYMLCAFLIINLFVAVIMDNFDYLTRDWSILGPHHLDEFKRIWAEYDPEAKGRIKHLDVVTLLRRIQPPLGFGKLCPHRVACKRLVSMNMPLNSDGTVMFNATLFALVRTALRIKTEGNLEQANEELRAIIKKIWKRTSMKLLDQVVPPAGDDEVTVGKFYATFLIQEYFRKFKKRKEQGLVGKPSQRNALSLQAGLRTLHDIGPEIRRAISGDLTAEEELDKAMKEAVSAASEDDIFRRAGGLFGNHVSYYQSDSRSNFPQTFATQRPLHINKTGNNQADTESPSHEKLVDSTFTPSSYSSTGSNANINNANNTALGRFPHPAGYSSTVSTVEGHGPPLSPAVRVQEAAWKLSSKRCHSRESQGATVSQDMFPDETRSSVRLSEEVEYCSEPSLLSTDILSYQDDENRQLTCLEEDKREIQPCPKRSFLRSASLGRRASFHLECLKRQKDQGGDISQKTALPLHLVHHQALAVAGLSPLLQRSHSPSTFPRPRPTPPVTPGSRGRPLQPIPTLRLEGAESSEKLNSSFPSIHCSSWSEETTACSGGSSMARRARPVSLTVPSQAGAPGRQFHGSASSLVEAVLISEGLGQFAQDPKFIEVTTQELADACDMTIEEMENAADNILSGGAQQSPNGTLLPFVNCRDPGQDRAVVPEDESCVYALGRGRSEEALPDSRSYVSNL
# Protocol text: Inhibition of rat Cav1.2 channel in rat mesenteric artery assessed as relaxation of 70 mM K+ induced contraction
Quantity kind: pIC50
pIC50 is a log-scale quantity: -log10 of the concentration expressed in molar.

The reported value for CC1=C(C(=O)SC(C)(C)C)C(/C(C)=C/c2ccccc2)C=C(c2ccccc2)N1 (stereo not drawn) in terms of pIC50 is 4.69

Per the records, this compound ( CCOC(=O)C1=C(C)NC(c2ccccc2)=CC1c1ccc(C)cc1 (stereo not drawn) ) has pIC50 equal to 4.97

Looking up CC1(C)CC(=O)C2=C(C1)NC(c1ccccc1)=CC2c1ccccc1 (stereo not drawn) , I found its pIC50 recorded as 6.47

###

# System: SH-SY5Y
# Protocol text: Neuroprotective activity against K+ induced Ca2+ overload in human SH-SY5Y cells assessed as survival at 5 uM after 24 hrs by MTT assay (reference value: 52.1 +/- 3.5%)
# Assay type: functional
# Measurement context: read-out: Survival
Assign viability at 5 µM to each entry below.
The reply should contain only the number, in %.

Looking up CCOC(=O)C1=C(C)NC(c2ccc(Cl)cc2)=CC1c1ccccc1 (stereo not given) , I see its viability at 5 µM listed as 69.4

The value of viability at 5 µM measured for the compound CCOC(=O)C1=C(C)NC(c2ccc(C)cc2)=CC1c1ccccc1[N+](=O)[O-] (stereo not given) turned out to be 62.9

GET /value?item= CC1=C(C(=O)SC(C)(C)C)C(c2ccc(Br)cc2)C=C(c2ccc(C)cc2)N1 (stereo not given) &field=viability at 5 µM returns 67.2

Measured viability at 5 µM, CCOC(=O)C1=C(C)NC(c2ccc(C)cc2)=CC1c1cccs1 (stereo not given) : 75.6

viability at 5 µM in this record for CCOC(=O)C1=C(CC)NC(c2ccccc2)=CC1c1ccccc1 (stereo not given) : 67.3

Record CCOC(=O)C1=C(C)NC(c2ccc(Cl)cc2)=CC1c1ccc(Cl)cc1 (stereo not given) . Reported viability at 5 µM: 65.1

// recorded viability at 5 µM for CCOC(=O)C1=C(C)NC(c2ccccc2)=CC1c1ccc([N+](=O)[O-])cc1 (stereo not given) : 64.6

// recorded viability at 5 µM for O=C1CCCC2=C1C(c1ccccc1)C=C(c1ccccc1)N2 (stereo not given) : 66.4

viability at 5 µM measured on CC(=O)C1=C(C)NC(c2ccccc2)=CC1c1ccccc1 (stereo not given) = 67.4

In plain terms, CC1=C(C(=O)SC(C)(C)C)C(/C(C)=C/c2ccccc2)C=C(c2ccccc2)N1 (stereo not given) has a documented viability at 5 µM of 69

###

# Tested on: SH-SY5Y
# Protocol text: Neuroprotective activity against K+ induced Ca2+ overload in human SH-SY5Y cells assessed as survival at 5 uM after 24 hrs by MTT assay (reference value: 52.1 +/- 3.5%)
# Assay type: functional
# Measurement context: read-out: Survival
Quantity kind: viability at 5 µM (%)
All answers are understood in %, so give the number only.

Form: compound = CCOC(=O)C1=C(C)NC(c2ccccc2)=CC1c1ccccc1 (centres undefined) ; viability at 5 µM = 67.6

Input CCCC1=C(C(=O)OCC)C(c2ccccc2)C=C(c2ccccc2)N1 (centres undefined) . Output viability at 5 µM: 65.4

Summary for this compound, `COC(=O)C1=C(C)NC(C)=C(C(=O)OC)C1c1ccccc1[N+](=O)[O-]` : viability at 5 µM is 62.9

So, CC1=C(C(=O)SC(C)(C)C)C(c2ccc(C)cc2)C=C(c2ccc(C)cc2)N1 (centres undefined) ? Its viability at 5 µM was 69.9

Ref: ChEMBL document CHEMBL3259712
